Answer each item with its documented IC50.
- System: BxPC-3
- assaySummary: Inhibition test on cell proliferation (MTT), BxPC-3
- Assay type: cell-based, human
- measurementContext: Homo sapiens, BXPC-3, 72 h, read-out: IC50 (nM) BxPC-3
Answers are plain numbers, in nM.

Recorded results for 2 compounds are shown here.
CC(C)c1c(/C=c2\[nH]c(=O)/c(=C/c3cccc(F)c3)[nH]c2=O)ncn1CCCN1CCOC(COCc2ccccc2)C1 (stereo not drawn) : 27.2
CC(C)c1c(/C=c2\[nH]c(=O)/c(=C/c3cccc(C(=O)c4ccc(F)cc4)c3)[nH]c2=O)ncn1CCCN1CCN(C(=O)C(C)(C)C)CC1 : 6.39

For this compound ( `CCCC(=O)N1CCN(CCCn2cnc(/C=c3\[nH]c(=O)/c(=C/c4cccc(F)c4)[nH]c3=O)c2C(C)C)CC1` ), measured IC50 is 30.4

* * *

For each record, write down the corresponding IC50.
- Test system: HT-29
- assaySummary: Inhibition test on cell proliferation (MTT), HT-29
- Type: cell-based, human
- measurementContext: Homo sapiens, HT-29, 72 h, 72 hours of drug treatment
Answers are plain numbers, in nM.

Past entries and their recorded results:
Cc1cccc(/C=c2\[nH]c(=O)/c(=C/c3ncn(CCCN4CCOCC4)c3C(C)C)[nH]c2=O)c1 [PLN-2-51] : 9.03
O=c1[nH]/c(=C\c2ncn(CCCN3CCOCC3)c2C2CC2)c(=O)[nH]/c1=C\c1cc(F)ccc1F [PLN-2-8] : 13.4
CC(C)c1c(/C=c2\[nH]c(=O)/c(=C/c3cc(F)cc(F)c3)[nH]c2=O)ncn1CCCN1CCOCC1 [PLN-2-62] : 3.49

Each molecule below has a reported value. Please supply its IC50.
1. CC(C)c1c(/C=c2\[nH]c(=O)/c(=C/c3cccc(C(=O)c4ccc(F)cc4)c3)[nH]c2=O)ncn1CCCN1CCNCC1 [PLN-2-16]
2. CC(C)c1c(/C=c2\[nH]c(=O)/c(=C/c3cccc(F)c3)[nH]c2=O)ncn1CCCN1CCOCC1 [PLN-2-9]
3. CC(C)c1c(/C=c2\[nH]c(=O)/c(=C/c3cc(F)ccc3F)[nH]c2=O)ncn1CCCN1CCOCC1 [PLN-2-7]
4. O=c1[nH]/c(=C\c2ncn(CCCN3CCOCC3)c2C2CC2)c(=O)[nH]/c1=C\c1ccccc1 [PLN-2-6]

1. 11.1
2. 4.37
3. 4.03
4. 25.3

* * *

Counter-ions that a name gives are not always drawn.
measuredMetric: melting point

Give melting point for all compounds that follow.
1. CC(C)c1c(/C=c2\[nH]c(=O)/c(=C/c3cccc(F)c3)[nH]c2=O)ncn1CCCN1CCO[C@@H](C)C1 [PLN-2-57]
2. CC(C)c1c(/C=c2\[nH]c(=O)/c(=C/c3cc(F)ccc3F)[nH]c2=O)ncn1CCCN1CCOCC1 [PLN-2-7]
3. CC(C)c1c(/C=c2\[nH]c(=O)/c(=C/c3cccc(Oc4ccc(F)cc4)c3)[nH]c2=O)ncn1CCCN1CCOCC1 (as salt: hydrochloride) [PLN-2-2-1]
4. CC(C)c1c(/C=c2\[nH]c(=O)/c(=C/c3cccc(F)c3)[nH]c2=O)ncn1CCCN1CCO[C@H](C)C1 (as salt: hydrochloride) [PLN-2-56-1]
5. Cc1ccccc1/C=c1\[nH]c(=O)/c(=C/c2ncn(CCCN3CCOCC3)c2C(C)C)[nH]c1=O [PLN-2-49]
6. CC(C)c1c(/C=c2\[nH]c(=O)/c(=C/c3cccc(Oc4ccc(F)cc4)c3)[nH]c2=O)ncn1CCCN1CCNCC1 [PLN-2-18]

211 to 213 °C
211.6 to 213.6 °C
173 to 175 °C
232.8 to 234.8 °C
169 to 171 °C
176 to 178 °C

The following compounds each have a reported value; give each one's melting point.
1. CCCOCC1CN(CCCn2cnc(/C=c3\[nH]c(=O)/c(=C/c4cccc(F)c4)[nH]c3=O)c2C(C)C)CCO1 (stereo not drawn) [PLN-2-59]
2. C=CC(=O)N1CCN(CCCn2cnc(/C=c3\[nH]c(=O)/c(=C/c4cccc(F)c4)[nH]c3=O)c2C(C)C)CC1 [PLN-2-61-1]
3. CC(C)c1c(/C=c2\[nH]c(=O)/c(=C/c3cccc(F)c3)[nH]c2=O)ncn1CCCN1CCO[C@@H](C)C1 (as salt: hydrochloride) [PLN-2-57-1]
4. Cc1cccc(/C=c2\[nH]c(=O)/c(=C/c3ncn(CCCN4CCOCC4)c3C(C)C)[nH]c2=O)c1C [PLN-2-50]

["178 to 180 °C", "238.6 to 240.6 °C", "232.2 to 234.2 °C", "164 to 166 °C"]

Record melting point per entry; entries follow.
1. CC(C)c1c(/C=c2\[nH]c(=O)/c(=C/c3ccccc3)[nH]c2=O)ncn1CCCN1CCOCC1 [PLN-2-5]
2. CC(C)c1c(/C=c2\[nH]c(=O)/c(=C/c3cccc(F)c3)[nH]c2=O)ncn1CCCN1CCO[C@H](C)C1 [PLN-2-56]
3. COc1cccc(/C=c2\[nH]c(=O)/c(=C/c3ncn(CCCN4CCOCC4)c3C(C)C)[nH]c2=O)c1 [PLN-2-52]
4. C=CC(=O)N1CCN(CCCn2cnc(/C=c3\[nH]c(=O)/c(=C/c4cccc(F)c4)[nH]c3=O)c2C(C)C)CC1 [PLN-2-61]
5. CC(C)c1c(/C=c2\[nH]c(=O)/c(=C/c3ccccc3)[nH]c2=O)ncn1CCCN1CCOCC1 (as salt: hydrochloride) [PLN-2-5-1]

1. 199.1 to 201.1 °C
2. 212 to 214 °C
3. 184 to 186 °C
4. 182 to 184 °C
5. 220 to 222 °C
